B1: EHEE_rd2_0601 (parent)
chain: TYTYKLTDEEASRRAEDEWRNRGYDVRVRNNNGTWEVEVR

- Variants of: B1
- ASSAY INFO: folding stability dG (cDNA display proteolysis); higher = more stable
- TEST SETTINGS: PBS, room temperature
Decide using folding stability dG: a value greater than or equal to 1 kcal/mol is Y, a smaller one is N.

Please review the following examples before continuing.
1. N32A Y
2. V26I N
3. R22H N
4. R27D Y
5. R22M Y

Prompt line: // inclusive: folding stability dG at least 1 kcal/mol? input: E18M
Response line: Y

Prompt line: // inclusive: folding stability dG at least 1 kcal/mol? input: R40F
Response line: Y

Prompt line: // inclusive: folding stability dG at least 1 kcal/mol? input: T1R
Response line: Y

Prompt line: // inclusive: folding stability dG at least 1 kcal/mol? input: R13C
Response line: N

Prompt line: // inclusive: folding stability dG at least 1 kcal/mol? input: T7H
Response line: Y
